# System Name: T1, human GITR (amino acids M1-V241, NCBI Accession #NP_004186.1) expressed on cells (human, UniProt Q9Y5U5 26-241)
# T1 sequence: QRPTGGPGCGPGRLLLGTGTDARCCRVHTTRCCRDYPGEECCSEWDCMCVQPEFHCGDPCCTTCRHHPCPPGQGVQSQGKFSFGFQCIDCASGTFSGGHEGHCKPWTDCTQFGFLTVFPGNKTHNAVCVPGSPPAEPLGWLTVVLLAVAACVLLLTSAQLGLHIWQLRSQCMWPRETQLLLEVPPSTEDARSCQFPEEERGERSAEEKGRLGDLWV
# Measurement Protocol: cell-based or functional assay
Recorded Endpoint: fold activation, T-cell proliferation, 33 nM, FcgR anchored, donor 3 (fold)

Binder | Scale Unit | Measured
H4H14475P (antibody, human IgG4, V domains shown, human IgG4 (H4H)) VH: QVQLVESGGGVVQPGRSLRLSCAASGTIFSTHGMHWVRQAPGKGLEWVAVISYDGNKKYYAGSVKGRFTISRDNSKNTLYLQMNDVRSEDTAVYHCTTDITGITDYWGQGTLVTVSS VL: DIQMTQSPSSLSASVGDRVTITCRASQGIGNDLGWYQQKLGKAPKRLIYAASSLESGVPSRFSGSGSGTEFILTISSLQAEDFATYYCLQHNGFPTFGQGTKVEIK | fold | 1.3
H4H14470P (antibody, human IgG4, V domains shown, human IgG4 (H4H)) VH: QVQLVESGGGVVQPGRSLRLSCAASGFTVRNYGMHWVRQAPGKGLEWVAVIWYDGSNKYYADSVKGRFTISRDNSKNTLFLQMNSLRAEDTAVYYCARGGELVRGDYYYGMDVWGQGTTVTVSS VL: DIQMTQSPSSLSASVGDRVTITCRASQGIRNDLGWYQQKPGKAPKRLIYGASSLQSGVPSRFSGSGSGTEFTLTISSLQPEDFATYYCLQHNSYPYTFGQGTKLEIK | fold | 1.4
H4H14521P (antibody, human IgG4, V domains shown, human IgG4 (H4H)) VH: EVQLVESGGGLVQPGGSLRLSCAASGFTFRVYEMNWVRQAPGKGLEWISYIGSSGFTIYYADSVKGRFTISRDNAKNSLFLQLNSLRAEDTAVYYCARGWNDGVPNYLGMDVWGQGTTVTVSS VL: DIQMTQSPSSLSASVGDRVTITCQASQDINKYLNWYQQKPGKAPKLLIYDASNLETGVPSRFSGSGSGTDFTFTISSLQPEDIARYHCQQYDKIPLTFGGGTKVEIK | fold | 1.1
H4H14516P (antibody, human IgG4, V domains shown, human IgG4 (H4H)) VH: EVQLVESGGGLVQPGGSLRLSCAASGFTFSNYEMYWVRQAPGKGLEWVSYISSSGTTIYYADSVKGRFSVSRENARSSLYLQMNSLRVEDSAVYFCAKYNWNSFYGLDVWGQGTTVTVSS VL: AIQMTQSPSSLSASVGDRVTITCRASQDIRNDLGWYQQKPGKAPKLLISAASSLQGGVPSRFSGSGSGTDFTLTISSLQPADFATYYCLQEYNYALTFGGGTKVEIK | fold | 1.2
H4H14525P (antibody, human IgG4, V domains shown, human IgG4 (H4H)) VH: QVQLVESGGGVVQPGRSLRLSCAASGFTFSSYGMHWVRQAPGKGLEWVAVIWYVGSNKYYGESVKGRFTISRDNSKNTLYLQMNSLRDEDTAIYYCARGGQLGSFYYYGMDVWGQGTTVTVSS VL: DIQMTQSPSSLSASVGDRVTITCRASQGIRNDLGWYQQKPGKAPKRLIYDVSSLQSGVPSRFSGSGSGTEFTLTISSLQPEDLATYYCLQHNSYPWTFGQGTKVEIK | fold | 1
H4H14508P (antibody, human IgG4, V domains shown, human IgG4 (H4H)) VH: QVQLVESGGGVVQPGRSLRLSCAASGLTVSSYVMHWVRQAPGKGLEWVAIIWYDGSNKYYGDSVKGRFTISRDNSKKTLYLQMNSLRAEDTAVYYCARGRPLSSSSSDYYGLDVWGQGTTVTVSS VL: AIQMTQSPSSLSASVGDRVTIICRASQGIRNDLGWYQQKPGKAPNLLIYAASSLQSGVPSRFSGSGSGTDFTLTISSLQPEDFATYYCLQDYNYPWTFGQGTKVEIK | fold | 1.1
